System: human liver cancer cells (HepG2)
assay remarks: Tumor weight and tumor inhibition in nude mice bearing HepG2
Type: in vivo
stated conditions: Table 6; avg tumor volume 153 mm^3; ≤120 μl/mouse every 3 days x3; 5th day after last dose
Classify as follows. Reported Tumor inhibition rate of intraperitoneal injection greater than or equal to 6%: yes (1). Reported Tumor inhibition rate of intraperitoneal injection below: no (0).

[
  {
    "chem smiles": "CC/C=C\\C/C=C\\C/C=C\\C/C=C\\C/C=C\\C/C=C\\CCC(=O)O",
    "test target": "human liver cancer cells (HepG2)",
    "qualitative label": "no (0)"
  }
]

Could you please find out whether O=c1[nH]cc(F)c(=O)[nH]1 has Tumor inhibition rate of intraperitoneal injection that meets 6% or exceeds it?
yes (1)

hey, is Tumor inhibition rate of intraperitoneal injection for this one >= 6%? CN(C)c1ccc2nc3ccc(=[N+](C)C)cc-3sc2c1
no (0)

I'd appreciate it if you could say whether N[C@@H](CCC(=O)N[C@@H](CS)C(=O)NCC(=O)O)C(=O)O has Tumor inhibition rate of intraperitoneal injection at least equal to 6%.
no (0)
